All figures here come from ChEMBL document CHEMBL1909536.

- experimental-target: Cytochrome P450 3A4 (Homo sapiens)
- Sequence (P08684 whole entry): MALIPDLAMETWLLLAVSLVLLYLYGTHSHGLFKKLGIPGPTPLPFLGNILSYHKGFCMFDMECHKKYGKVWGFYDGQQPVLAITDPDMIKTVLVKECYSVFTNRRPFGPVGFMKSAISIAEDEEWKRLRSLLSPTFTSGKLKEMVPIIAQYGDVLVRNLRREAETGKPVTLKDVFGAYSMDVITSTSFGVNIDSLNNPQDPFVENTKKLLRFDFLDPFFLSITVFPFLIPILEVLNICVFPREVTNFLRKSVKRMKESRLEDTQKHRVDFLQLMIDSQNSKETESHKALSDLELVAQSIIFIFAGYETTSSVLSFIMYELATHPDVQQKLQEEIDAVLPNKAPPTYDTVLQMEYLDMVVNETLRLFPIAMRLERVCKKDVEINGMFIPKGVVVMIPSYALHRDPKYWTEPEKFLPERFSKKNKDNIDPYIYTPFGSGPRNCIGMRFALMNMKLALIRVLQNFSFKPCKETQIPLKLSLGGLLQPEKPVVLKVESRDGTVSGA
- assay-overview: Inhibition of CYP3A4 in presence of the substrate 7-bezyloxy-4-trifluoromethyl coumarin
- Format: ADME
assay-readout: IC50 (µM)

compound: Cc1nc2c(c(-c3ccc(Cl)cc3Cl)c1CN)CN(CCO)C2=O (single isomer, unassigned; atropisomer)
experimental-target: Cytochrome P450 3A4 (Homo sapiens)
unit-abbreviation: µM
qualifier-operator: >
observed-measurement: 40

compound: COCCN1Cc2c(nc(C)c(CN)c2-c2ccc(Cl)cc2Cl)C1=O (single isomer, unassigned; atropisomer)
experimental-target: Cytochrome P450 3A4 (Homo sapiens)
unit-abbreviation: µM
qualifier-operator: =
observed-measurement: 22

compound: Cc1nc2c(c(-c3ccc(Cl)cc3Cl)c1CN)CN(C)C2=O (single isomer, unassigned; atropisomer)
experimental-target: Cytochrome P450 3A4 (Homo sapiens)
unit-abbreviation: µM
qualifier-operator: >
observed-measurement: 40

compound: Cc1nc2c(c(-c3ccc(Cl)cc3Cl)c1CN)CN(Cc1ccccc1)C2=O (single isomer, unassigned; atropisomer)
experimental-target: Cytochrome P450 3A4 (Homo sapiens)
unit-abbreviation: µM
qualifier-operator: =
observed-measurement: 2.8

compound: Cc1ccc(N2Cc3c(nc(C)c(CN)c3-c3ccc(Cl)cc3Cl)C2=O)cc1 (single isomer, unassigned; atropisomer)
experimental-target: Cytochrome P450 3A4 (Homo sapiens)
unit-abbreviation: µM
qualifier-operator: =
observed-measurement: 0.27

compound: Cc1nc2c(c(-c3ccc(Cl)cc3Cl)c1CN)CN(CC(=O)O)C2=O (single isomer, unassigned; atropisomer)
experimental-target: Cytochrome P450 3A4 (Homo sapiens)
unit-abbreviation: µM
qualifier-operator: >
observed-measurement: 40

compound: COC(=O)CN1Cc2c(nc(C)c(CN)c2-c2ccc(Cl)cc2Cl)C1=O (single isomer, unassigned; atropisomer)
experimental-target: Cytochrome P450 3A4 (Homo sapiens)
unit-abbreviation: µM
qualifier-operator: =
observed-measurement: 17

compound: Cc1nc2cn(Cc3ccccc3)cc2c(-c2ccc(Cl)cc2Cl)c1CN
experimental-target: Cytochrome P450 3A4 (Homo sapiens)
unit-abbreviation: µM
qualifier-operator: =
observed-measurement: 1.1

compound: Cc1nc2c(c(-c3ccc(Cl)cc3Cl)c1CN)CN(c1ccccc1)C2=O (single isomer, unassigned; atropisomer)
experimental-target: Cytochrome P450 3A4 (Homo sapiens)
unit-abbreviation: µM
qualifier-operator: =
observed-measurement: 1.2

compound: Cc1nc2c(c(-c3ccc(Cl)cc3Cl)c1CN)CNC2=O (single isomer, unassigned; atropisomer)
experimental-target: Cytochrome P450 3A4 (Homo sapiens)
unit-abbreviation: µM
qualifier-operator: >
observed-measurement: 40
